- Procedure text: H-ORAC (hydrophilic oxygen radical absorbance capacity) assay
- Assay type: biochemical
- Recorded conditions: sodium salt aqueous solution, phosphate buffer pH 7.4
- Experimental: To study the free radical scavenging activity of a triprenyl phenol compound, the following H-ORAC (hydrophilic oxygen radical absorbance capacity) assay, and modified H-ORAC (mH-ORAC) assay were conducted. SMTP compounds evaluated by H-ORAC were used respectively in a form of a sodium salt aqueous solution, and the compounds evaluated by mH-ORAC were used respectively in a form of an acetone solution. […]
Kindly apply the following: TRUE if free radical scavenging activity, Trolox equivalent is less than 3 molTE/mol, FALSE in every other case.

**Q:** Lab log: compare recorded free radical scavenging activity, Trolox equivalent with 3 molTE/mol; is it strictly lower for CC(C)=CCC/C(C)=C/CCC1(C)Oc2c(c(O)cc3c2CN(C(Cc2ccccc2)C(=O)O)C3=O)CC1O (stereo not shown) ?
**A:** TRUE

**Q:** Lab log: compare recorded free radical scavenging activity, Trolox equivalent with 3 molTE/mol; is it strictly lower for CC(C)=CCCC(C)=CCC[C@]1(C)Oc2c(c(O)cc3c2CN([C@@H](Cc2ccc(O)cc2)C(=O)O)C3=O)C[C@@H]1O ?
**A:** FALSE

**Q:** Lab log: compare recorded free radical scavenging activity, Trolox equivalent with 3 molTE/mol; is it strictly lower for CC(C)=CCC/C(C)=C/CC[C@@]1(C)Oc2c(c(O)cc3c2CN(CCC[C@@H](C(=O)O)N2Cc4c(cc(O)c5c4O[C@](C)(CC/C=C(\C)CCC=C(C)C)[C@@H](O)C5)C2=O)C3=O)C[C@@H]1O ?
**A:** TRUE

**Q:** Lab log: compare recorded free radical scavenging activity, Trolox equivalent with 3 molTE/mol; is it strictly lower for CC(C)=CCCC(C)=CCC[C@]1(C)Oc2c(c(O)cc3c2CN(c2ccc(S(=O)(=O)O)cc2)C3=O)C[C@@H]1O ?
**A:** FALSE

**Q:** Lab log: compare recorded free radical scavenging activity, Trolox equivalent with 3 molTE/mol; is it strictly lower for CC(C)=CCC/C(C)=C/CCC1(C)Oc2c(c(O)cc3c2CN(C(Cc2c[nH]c4ccccc24)C(=O)O)C3=O)CC1O (stereo not shown) ?
**A:** FALSE

Here is another compound to look at.
**Q:** Lab log: compare recorded free radical scavenging activity, Trolox equivalent with 3 molTE/mol; is it strictly lower for CC(C)=CCC/C(C)=C/CCC1(C)Oc2c(c(O)cc3c2CN([C@H](CC(C)C)C(=O)O)C3=O)CC1O (stereo partly shown) ?
**A:** TRUE
